Target: MKK2 (Homo sapiens)
Sequence (P36507 whole entry): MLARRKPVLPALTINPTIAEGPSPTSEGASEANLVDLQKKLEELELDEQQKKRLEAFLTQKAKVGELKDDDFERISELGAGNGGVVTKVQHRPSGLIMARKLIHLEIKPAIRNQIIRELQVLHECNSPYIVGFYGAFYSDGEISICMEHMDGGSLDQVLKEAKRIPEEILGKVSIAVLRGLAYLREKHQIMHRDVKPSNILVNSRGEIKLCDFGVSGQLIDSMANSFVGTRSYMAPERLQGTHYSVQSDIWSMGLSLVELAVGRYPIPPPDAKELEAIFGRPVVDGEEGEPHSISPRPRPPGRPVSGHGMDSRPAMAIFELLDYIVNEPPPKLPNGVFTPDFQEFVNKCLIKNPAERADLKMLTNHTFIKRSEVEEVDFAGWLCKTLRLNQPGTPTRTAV
Experiment: Kinase profiling (radiometric filter-binding)
Format: biochemical
Settings: MKK2, 1 µM inhibitor; read-out: Residual activity, %
property: remaining activity at 1 µM

# batch: return remaining activity at 1 µM for each of the 3 compounds below
1. N=C(N)NCCC[C@@H](NC(=O)CNC(=O)[C@@H](CCCNC(=N)N)NC(=O)[C@@H](CCCNC(=N)N)NC(=O)CCCCCCCNCc1nc2c(sc3ccc(Br)cc32)c(=O)[nH]1)C(=O)N[C@H](CCCCN)C(N)=O
2. N=C(N)NCCC[C@@H](NC(=O)CNC(=O)[C@@H](CCCNC(=N)N)NC(=O)[C@@H](CCCNC(=N)N)NC(=O)CCCCCCCNCc1nc2c(sc3cc(Br)cnc32)c(=O)[nH]1)C(=O)N[C@H](CCCCN)C(N)=O
3. N=C(N)NCCC[C@@H](NC(=O)CCCCCNC(=O)Cn1cnc2c(I)c(I)c(I)c(I)c21)C(=O)N[C@H](CCCNC(=N)N)C(=O)N[C@H](CCCNC(=N)N)C(=O)N[C@H](CCCNC(=N)N)C(=O)N[C@H](CCCNC(=N)N)C(=O)N[C@H](CCCNC(=N)N)C(=O)N[C@H](CCCCN)C(N)=O

[reply]
["108%", "102%", "68%"]

###

Target: RSK1 (Homo sapiens)
Sequence (Q15418 whole entry): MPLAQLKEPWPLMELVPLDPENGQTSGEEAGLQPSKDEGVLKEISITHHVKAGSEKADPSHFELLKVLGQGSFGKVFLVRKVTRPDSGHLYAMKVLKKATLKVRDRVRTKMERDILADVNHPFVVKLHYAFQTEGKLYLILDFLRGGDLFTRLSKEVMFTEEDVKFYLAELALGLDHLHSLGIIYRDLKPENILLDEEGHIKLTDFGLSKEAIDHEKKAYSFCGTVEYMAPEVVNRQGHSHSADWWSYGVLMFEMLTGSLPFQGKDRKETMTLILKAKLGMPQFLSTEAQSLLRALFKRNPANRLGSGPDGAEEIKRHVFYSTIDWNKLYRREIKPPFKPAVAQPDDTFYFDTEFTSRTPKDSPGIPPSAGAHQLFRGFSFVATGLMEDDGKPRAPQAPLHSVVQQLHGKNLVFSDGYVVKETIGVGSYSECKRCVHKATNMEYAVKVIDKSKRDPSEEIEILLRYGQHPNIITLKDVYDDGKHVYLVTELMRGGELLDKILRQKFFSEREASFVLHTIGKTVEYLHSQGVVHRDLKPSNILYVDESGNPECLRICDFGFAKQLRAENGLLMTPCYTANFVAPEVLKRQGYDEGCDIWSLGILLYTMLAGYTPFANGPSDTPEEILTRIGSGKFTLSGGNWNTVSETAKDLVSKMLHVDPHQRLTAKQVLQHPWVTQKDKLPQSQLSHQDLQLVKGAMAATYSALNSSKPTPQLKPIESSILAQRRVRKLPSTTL
Assay: Kinase profiling (radiometric filter-binding)
Type: biochemical
Conditions: RSK1, 1 µM inhibitor; read-out: Residual activity, %
Please respond with reported remaining activity at 1 µM for every item in the list.
Numbers only, in %.

N=C(N)NCCC[C@@H](NC(=O)CNC(=O)[C@@H](CCCNC(=N)N)NC(=O)[C@@H](CCCNC(=N)N)NC(=O)CCCCCCCNCc1nc2c(sc3ccc(Br)cc32)c(=O)[nH]1)C(=O)N[C@H](CCCCN)C(N)=O :: 31
N=C(N)NCCC[C@@H](NC(=O)CCCCCNC(=O)Cn1cnc2c(I)c(I)c(I)c(I)c21)C(=O)N[C@H](CCCNC(=N)N)C(=O)N[C@H](CCCNC(=N)N)C(=O)N[C@H](CCCNC(=N)N)C(=O)N[C@H](CCCNC(=N)N)C(=O)N[C@H](CCCNC(=N)N)C(=O)N[C@H](CCCCN)C(N)=O :: 19

Turning to the following compound.
[ask] What value of remaining activity at 1 µM has been recorded for this entry: `CN(C)c1ccc2c(c1)Oc1cc(N(C)C)ccc1C21OC(=O)c2cc(C(=O)NCCCC[C@@H](NC(=O)[C@@H](CCCNC(=N)N)NC(=O)CNC(=O)[C@@H](CCCNC(=N)N)NC(=O)[C@@H](CCCNC(=N)N)NC(=O)CCCCc3cn(Cc4nc5c(sc6ccc(Br)cc65)c(=O)[nH]4)nn3)C(N)=O)ccc21`
[reply] 74

###

Target: IRAK4 (Homo sapiens, UniProt Q9NWZ3)
Sequence (Q9NWZ3 1-460): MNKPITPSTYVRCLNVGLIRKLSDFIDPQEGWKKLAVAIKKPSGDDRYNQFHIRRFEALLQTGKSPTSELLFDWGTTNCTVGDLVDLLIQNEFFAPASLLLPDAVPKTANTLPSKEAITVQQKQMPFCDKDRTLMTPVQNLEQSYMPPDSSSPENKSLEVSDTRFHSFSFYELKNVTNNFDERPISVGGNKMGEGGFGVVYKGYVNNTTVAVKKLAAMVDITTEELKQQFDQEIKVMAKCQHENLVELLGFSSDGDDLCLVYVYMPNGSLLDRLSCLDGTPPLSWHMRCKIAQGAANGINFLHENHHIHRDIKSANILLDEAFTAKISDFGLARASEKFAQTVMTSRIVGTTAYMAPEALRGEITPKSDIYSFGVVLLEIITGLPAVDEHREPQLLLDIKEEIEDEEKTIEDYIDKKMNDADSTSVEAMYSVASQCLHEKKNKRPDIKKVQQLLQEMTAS
Assay: Kinase profiling (radiometric filter-binding)
Type: biochemical
Settings: IRAK4, 1 µM inhibitor; read-out: Residual activity, %
property: remaining activity at 1 µM (%)
Numbers only, in %.

N=C(N)NCCC[C@@H](NC(=O)CNC(=O)[C@@H](CCCNC(=N)N)NC(=O)[C@@H](CCCNC(=N)N)NC(=O)CCCCCCCNCc1nc2c(sc3ccc(Br)cc32)c(=O)[nH]1)C(=O)N[C@H](CCCCN)C(N)=O :: 108

Required: remaining activity at 1 µM, one value per molecule below.
1. N=C(N)NCCC[C@@H](NC(=O)CNC(=O)[C@@H](CCCNC(=N)N)NC(=O)[C@@H](CCCNC(=N)N)NC(=O)Cn1cc(CNCc2nc3c(sc4ccc(Br)cc43)c(=O)[nH]2)nn1)C(=O)N[C@H](CCCCN)C(N)=O
2. N=C(N)NCCC[C@@H](NC(=O)CCCCCNC(=O)Cn1cnc2c(I)c(I)c(I)c(I)c21)C(=O)N[C@H](CCCNC(=N)N)C(=O)N[C@H](CCCNC(=N)N)C(=O)N[C@H](CCCNC(=N)N)C(=O)N[C@H](CCCNC(=N)N)C(=O)N[C@H](CCCNC(=N)N)C(=O)N[C@H](CCCCN)C(N)=O

[reply]
107
73

###

Molecular target: MELK (Homo sapiens)
Sequence (Q14680 whole entry): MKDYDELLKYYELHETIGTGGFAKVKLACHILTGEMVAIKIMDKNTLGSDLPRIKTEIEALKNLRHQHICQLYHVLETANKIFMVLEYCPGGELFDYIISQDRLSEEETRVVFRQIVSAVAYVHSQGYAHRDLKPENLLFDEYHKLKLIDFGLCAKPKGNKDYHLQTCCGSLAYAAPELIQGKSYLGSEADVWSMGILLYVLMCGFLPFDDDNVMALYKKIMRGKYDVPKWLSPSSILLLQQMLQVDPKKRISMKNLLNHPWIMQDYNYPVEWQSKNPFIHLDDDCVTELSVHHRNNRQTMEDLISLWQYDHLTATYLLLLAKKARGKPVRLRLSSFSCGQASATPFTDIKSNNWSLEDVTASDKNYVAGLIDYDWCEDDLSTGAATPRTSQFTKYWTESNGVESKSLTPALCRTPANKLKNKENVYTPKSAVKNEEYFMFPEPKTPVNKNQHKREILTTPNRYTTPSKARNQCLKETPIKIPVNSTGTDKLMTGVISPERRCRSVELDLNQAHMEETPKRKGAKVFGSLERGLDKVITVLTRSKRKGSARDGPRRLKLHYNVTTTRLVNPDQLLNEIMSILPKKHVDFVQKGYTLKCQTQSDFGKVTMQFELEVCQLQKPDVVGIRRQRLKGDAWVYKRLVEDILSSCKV
Assay: Kinase profiling (radiometric filter-binding)
Assay type: biochemical
Settings: 1 µM inhibitor, read-out: Residual activity, %
Square brackets hold non-standard residues; d marks the D form. Peptide text beside a SMILES is read from it. * marks the point of attachment. X3 = O=C(CCCCCNCc1nc2c(sc3cc(Br)cnc32)c(=O)[nH]1)*
property: remaining activity at 1 µM (%)
Give bare numbers, in %.

Worked examples, 3 compounds total:
N=C(N)NCCC[C@@H](NC(=O)CNC(=O)[C@@H](CCCNC(=N)N)NC(=O)[C@@H](CCCNC(=N)N)NC(=O)CCCCCCCNCc1nc2c(sc3ccc(Br)cc32)c(=O)[nH]1)C(=O)N[C@H](CCCCN)C(N)=O :: 75
N=C(N)NCCC[C@@H](NC(=O)CNC(=O)[C@@H](CCCNC(=N)N)NC(=O)[C@@H](CCCNC(=N)N)NC(=O)CCCCCCCNCc1nc2c(sc3cc(Br)cnc32)c(=O)[nH]1)C(=O)N[C@H](CCCCN)C(N)=O :: 86
N=C(N)NCCC[C@@H](NC(=O)CNC(=O)[C@@H](CCCNC(=N)N)NC(=O)[C@@H](CCCNC(=N)N)NC(=O)Cn1cc(CNCc2nc3c(sc4ccc(Br)cc43)c(=O)[nH]2)nn1)C(=O)N[C@H](CCCCN)C(N)=O :: 73

Hello, I would appreciate it if you could give remaining activity at 1 µM for each entry below.
1. N=C(N)NCCC[C@@H](NC(=O)CCCCCNCc1nc2c(sc3cc(Br)cnc32)c(=O)[nH]1)C(=O)N[C@H](CCCNC(=N)N)C(=O)N[C@H](CCCNC(=N)N)C(=O)N[C@H](CCCNC(=N)N)C(=O)N[C@H](CCCNC(=N)N)C(=O)N[C@H](CCCNC(=N)N)C(=O)N[C@H](CCCCN)C(N)=O [ARC-3126, BPTP-Ahx-(D-Arg)6-D-Lys-NH2] (X3-[dR][dR][dR][dR][dR][dR][dK]-NH2)
2. N=C(N)NCCC[C@@H](NC(=O)CCCCCNC(=O)Cn1cnc2c(I)c(I)c(I)c(I)c21)C(=O)N[C@H](CCCNC(=N)N)C(=O)N[C@H](CCCNC(=N)N)C(=O)N[C@H](CCCNC(=N)N)C(=O)N[C@H](CCCNC(=N)N)C(=O)N[C@H](CCCNC(=N)N)C(=O)N[C@H](CCCCN)C(N)=O

[reply]
1. 79
2. 34

###

Target: PKC (Homo sapiens)
Assay: Kinase profiling (radiometric filter-binding)
Type: biochemical
Conditions: first of two PKC lines (Greek letter lost), 1 µM inhibitor, read-out: Residual activity, %
Square brackets hold non-standard residues; d marks the D form. Peptide text beside a SMILES is read from it. * marks the point of attachment. X3 = O=C(CCCCCNCc1nc2c(sc3cc(Br)cnc32)c(=O)[nH]1)*
property: remaining activity at 1 µM (%)
One number for each entry, in %.

N=C(N)NCCC[C@@H](NC(=O)CNC(=O)[C@@H](CCCNC(=N)N)NC(=O)[C@@H](CCCNC(=N)N)NC(=O)CCCCCCCNCc1nc2c(sc3cc(Br)cnc32)c(=O)[nH]1)C(=O)N[C@H](CCCCN)C(N)=O :: 112
N=C(N)NCCC[C@@H](NC(=O)CNC(=O)[C@@H](CCCNC(=N)N)NC(=O)[C@@H](CCCNC(=N)N)NC(=O)CCCCCCCNCc1nc2c(sc3ccc(Br)cc32)c(=O)[nH]1)C(=O)N[C@H](CCCCN)C(N)=O :: 102
N=C(N)NCCC[C@@H](NC(=O)CCCCCNC(=O)Cn1cnc2c(I)c(I)c(I)c(I)c21)C(=O)N[C@H](CCCNC(=N)N)C(=O)N[C@H](CCCNC(=N)N)C(=O)N[C@H](CCCNC(=N)N)C(=O)N[C@H](CCCNC(=N)N)C(=O)N[C@H](CCCNC(=N)N)C(=O)N[C@H](CCCCN)C(N)=O :: 81
N=C(N)NCCC[C@@H](NC(=O)CCCCCNCc1nc2c(sc3cc(Br)cnc32)c(=O)[nH]1)C(=O)N[C@H](CCCNC(=N)N)C(=O)N[C@H](CCCNC(=N)N)C(=O)N[C@H](CCCNC(=N)N)C(=O)N[C@H](CCCNC(=N)N)C(=O)N[C@H](CCCNC(=N)N)C(=O)N[C@H](CCCCN)C(N)=O [ARC-3126, BPTP-Ahx-(D-Arg)6-D-Lys-NH2] (X3-[dR][dR][dR][dR][dR][dR][dK]-NH2) :: 115

[ask] Could you share what remaining activity at 1 µM was measured for `N=C(N)NCCC[C@@H](NC(=O)CNC(=O)[C@@H](CCCNC(=N)N)NC(=O)[C@@H](CCCNC(=N)N)NC(=O)Cn1cc(CNCc2nc3c(sc4ccc(Br)cc43)c(=O)[nH]2)nn1)C(=O)N[C@H](CCCCN)C(N)=O` , tested on PKC (Homo sapiens)?
[reply] 110
